Assay: Solubility in water of the synthesized peptide
Type: physicochemical
Settings: in words
Where a SMILES comes first, the peptide text is derived from it. Bridges are numbered along the chain shown (N, C = ends). [ ]: non-standard residue; d: D form. The star is where a group is joined. ξ: configuration not given here. Octanoyl = CCCCCCCC(=O)*; ξLac = CC(O)C(=O)O
readout name: solubility in water

>  <molecule>
CCCCCCCC(=O)NCC(=O)NCC(=O)NCC(=O)N[C@H]1CSSC[C@@H](C(=O)N2CCC[C@H]2C(=O)N[C@@H](CCCCN)C(=O)NCC(N)=O)NC(=O)[C@H](CC(N)=O)NC(=O)[C@H](CCC(N)=O)NC(=O)[C@H](Cc2ccccc2)NC(=O)[C@H](Cc2ccc(O)cc2)NC1=O [C8TerA] (Octanoyl-GGGCYFQNCPKG-NH2; disulfide 4-9)

>  <data value>
water soluble

$$$$
>  <molecule>
CCCCCCCC(=O)OC(C)C(=O)NCC(=O)NCC(=O)NCC(=O)N[C@H]1CSSC[C@@H](C(=O)N2CCC[C@H]2C(=O)N[C@@H](CCCCN)C(=O)NCC(N)=O)NC(=O)[C@H](CC(N)=O)NC(=O)[C@H](CCC(N)=O)NC(=O)[C@H](Cc2ccccc2)NC(=O)[C@H](Cc2ccc(O)cc2)NC1=O (stereo partly drawn) [C8TerE] (Octanoyl-[ξLac]GGGCYFQNCPKG-NH2; disulfide 5-10)

>  <data value>
water soluble

$$$$

Sourced from patent US8518876B2
